These records show IC50 for Protein kinase C alpha type (Homo sapiens, UniProt P17252).
Give just the numeric value; µM need not be written.

CCOC(=O)Cn1sc(=O)n(-c2ccc(C(=O)OCC)cc2)c1=O 48.3

Now look at this one.
Hello, I am looking for reported IC50 with Protein kinase C alpha type (Homo sapiens, UniProt P17252) for `CCOC(=O)Cn1sc(=O)n(CC(=O)N2CCCCC2)c1=O` . Could you help?
4.1

* * *

Reported inhibition by item:
molecular target: Glycogen synthase kinase-3 beta (Homo sapiens); test: Inhibition of GSK3-beta at 10 uM by Z'-LYTE kinase assay
Sequence (P49841 whole entry, looked up): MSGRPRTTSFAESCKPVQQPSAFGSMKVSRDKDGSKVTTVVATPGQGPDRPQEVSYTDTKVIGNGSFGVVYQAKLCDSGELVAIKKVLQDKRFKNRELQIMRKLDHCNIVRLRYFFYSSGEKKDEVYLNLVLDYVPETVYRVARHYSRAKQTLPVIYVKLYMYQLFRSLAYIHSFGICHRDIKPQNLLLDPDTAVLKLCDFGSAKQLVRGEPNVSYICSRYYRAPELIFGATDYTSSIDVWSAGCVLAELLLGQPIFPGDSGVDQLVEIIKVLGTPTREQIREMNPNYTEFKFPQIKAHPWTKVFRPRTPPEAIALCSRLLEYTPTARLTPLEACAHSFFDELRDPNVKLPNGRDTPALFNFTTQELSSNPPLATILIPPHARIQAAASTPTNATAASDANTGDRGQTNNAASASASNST
Answer in %, number only, no unit symbol.

For orientation, consider the following solved cases.
CCOC(=O)Cn1sc(=O)n(-c2ccc(C(=O)OCC)cc2)c1=O 75
CCOC(=O)Cn1sc(=O)n(-c2cccc(C(=O)OCC)c2)c1=O 84
O=c1sn(-c2ccccc2)c(=O)n1CCCl 74
CCOC(=O)Cn1sc(=O)n(CC(=O)N2CCCCC2)c1=O 65
CCn1sc(=O)n(Cc2ccccc2)c1=O 65

Moving on to the next compound.
Data request, read-out inhibition, for `O=c1sn(CCc2ccccc2)c(=O)n1Cc1ccc(F)cc1`
80

* * *

Notes on pIC50 obtained with Glycogen synthase kinase-3 beta (Homo sapiens, UniProt P49841).
Interpret pIC50 as the negative base-10 log of the concentration measured in mol/L.

Record excerpt, results attached:
CCn1sc(=O)n(Cc2ccccc2)c1=O 5.15
CCOC(=O)Cn1sc(=O)n(CC(=O)N2CCCCC2)c1=O 6.27
CCOC(=O)Cn1sc(=O)n(-c2ccc(C(=O)OCC)cc2)c1=O 5.99

Which pIC50 value belongs to `CCOC(=O)Cn1sc(=O)n(-c2cccc(C(=O)OCC)c2)c1=O` ?
6.33

* * *

target: UniProtKB P06493; test: Inhibition of CDK1 at 100 uM
Sequence (P06493 whole entry, looked up): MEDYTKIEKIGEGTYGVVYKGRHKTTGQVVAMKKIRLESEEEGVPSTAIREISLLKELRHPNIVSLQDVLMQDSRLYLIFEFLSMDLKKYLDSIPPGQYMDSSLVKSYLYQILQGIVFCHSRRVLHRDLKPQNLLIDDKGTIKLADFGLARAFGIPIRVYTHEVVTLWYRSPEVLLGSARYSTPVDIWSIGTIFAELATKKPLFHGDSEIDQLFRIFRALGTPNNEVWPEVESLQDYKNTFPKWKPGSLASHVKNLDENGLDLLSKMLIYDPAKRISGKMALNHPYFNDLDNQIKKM
Quantity Kind: inhibition (%)
State just the number; it will be interpreted in %.

Answered cases to consult:
O=c1sn(CCc2ccccc2)c(=O)n1Cc1ccc(F)cc1 20
CCOC(=O)Cn1sc(=O)n(-c2ccc(C(=O)OCC)cc2)c1=O 12

Note: attention shifts to another entry.
Entry under review: `O=c1sn(-c2ccccc2)c(=O)n1CCCl` . Reported inhibition?
0

* * *

experiment: Inhibition of CSNK2 at 100 uM
Entries and their inhibition
Write down the numeric answer in % and omit the unit.

Examples with answers:
CCn1sc(=O)n(Cc2ccccc2)c1=O 30
CCOC(=O)Cn1sc(=O)n(CC(=O)N2CCCCC2)c1=O 21
CCOC(=O)Cn1sc(=O)n(-c2ccc(C(=O)OCC)cc2)c1=O 36
CCOC(=O)Cn1sc(=O)n(-c2cccc(C(=O)OCC)c2)c1=O 21
O=c1sn(-c2ccccc2)c(=O)n1CCCl 17

Then this compound:
Give the measured inhibition of `O=c1sn(CCc2ccccc2)c(=O)n1Cc1ccc(F)cc1` .
31

* * *

molecular target: Protein kinase C alpha type (Homo sapiens, UniProt P17252); test: Inhibition of PKCalpha at 100 uM
inhibition below 90% gives class 0; inhibition at or above it gives class 1.

Below are worked cases with known answers.
O=c1sn(CCc2ccccc2)c(=O)n1Cc1ccc(F)cc1 class 0
CCOC(=O)Cn1sc(=O)n(CC(=O)N2CCCCC2)c1=O class 1
CCOC(=O)Cn1sc(=O)n(-c2ccc(C(=O)OCC)cc2)c1=O class 0

Lab note: next compound to report on.
Quick check, inhibition >= 90%? `O=c1sn(-c2ccccc2)c(=O)n1CCCl`
class 0
